# Tested on: human plasma proteins
# assay remarks: Plasma protein binding by equilibrium dialysis, human plasma
# Format: in vitro ADME
# assay setup: human plasma, 5 μM, fraction unbound
I'd be grateful if you could share measured Plasma Protein Binding Fu ± SD for these entries.
One number for each entry.

- molecule: "COCCOCCOCCOC(=O)N[C@@H](C(=O)NC(Cc1ccccc1)[C@@H](O)CN(Cc1ccc(-c2ccccn2)cc1)NC(=O)[C@H](NC(=O)OCCOCCOCCOC)C(C)(C)C)C(C)(C)C (stereo partly shown)"
  measured property: "Plasma Protein Binding Fu ± SD"
  test result: 0.376
- molecule: "COCCOCCOCCOCCOCCOC(=O)N[C@@H](C(=O)NC(Cc1ccccc1)[C@@H](O)CN(Cc1ccc(-c2ccccn2)cc1)NC(=O)[C@H](NC(=O)OCCOCCOCCOCCOCCOC)C(C)(C)C)C(C)(C)C (stereo partly shown)"
  measured property: "Plasma Protein Binding Fu ± SD"
  test result: 0.537
- molecule: "COCCOCCOCCOc1ccc(C[C@H](NC(=O)O[C@H]2CO[C@H]3OCC[C@H]32)C(O)CN(CC(C)C)S(=O)(=O)c2ccc(N)cc2)cc1 (stereo partly shown)"
  measured property: "Plasma Protein Binding Fu ± SD"
  test result: 0.274

Let us examine a further case.
Plasma Protein Binding Fu ± SD recorded for this molecule, COCCOCCOCCOCCOCCOc1ccc(C[C@H](NC(=O)O[C@H]2CO[C@H]3OCC[C@H]32)C(O)CN(CC(C)C)S(=O)(=O)c2ccc(N)cc2)cc1 (stereo partly shown) , is 0.448

* * *

# tgt: CYP3A4 (Homo sapiens (Human), UniProt P08684)
# Sequence (P08684 whole entry): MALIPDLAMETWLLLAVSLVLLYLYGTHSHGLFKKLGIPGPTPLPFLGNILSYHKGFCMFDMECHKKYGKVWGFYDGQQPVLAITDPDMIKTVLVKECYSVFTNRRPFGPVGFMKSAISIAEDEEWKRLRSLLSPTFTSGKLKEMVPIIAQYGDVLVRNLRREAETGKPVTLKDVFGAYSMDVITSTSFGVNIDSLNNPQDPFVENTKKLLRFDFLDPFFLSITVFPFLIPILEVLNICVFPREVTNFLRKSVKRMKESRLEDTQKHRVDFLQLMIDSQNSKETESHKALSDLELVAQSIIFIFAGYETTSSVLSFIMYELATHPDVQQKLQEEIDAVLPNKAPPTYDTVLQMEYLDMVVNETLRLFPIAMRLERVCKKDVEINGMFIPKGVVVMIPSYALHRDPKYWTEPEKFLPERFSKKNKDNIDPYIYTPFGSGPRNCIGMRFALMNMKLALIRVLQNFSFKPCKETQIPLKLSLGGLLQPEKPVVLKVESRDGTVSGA
# assay remarks: CYP450 inhibition in human liver microsomes: CYP3A4
# assay setup: CYP3A4 IC50 Testosterone, probe substrate testosterone
measured property: pIC50
Answers are plain numbers, as −log10 of the molar value.

pIC50 recorded for this molecule, COCCOCCOCCOC(=O)NC(C(=O)NC(Cc1ccccc1)C(O)CN(Cc1ccc(-c2ccccn2)cc1)NC(=O)C(NC(=O)OC)C(C)(C)C)C(C)(C)C (stereo not shown) , is 4.89

* * *

I'd be grateful if you could share measured TC50 for these entries.
# Test system: monocyte-derived dendritic cells
# assay remarks: Cytotoxicity in monocyte-derived dendritic cells (XTT)
# Assay type: cell-based, human

Completed entries (count: 5):
- compound: "COCCOC(=O)NC(C(=O)NC(Cc1ccccc1)C(O)CN(Cc1ccc(-c2ccccn2)cc1)NC(=O)C(NC(=O)OC)C(C)(C)C)C(C)(C)C (stereo not drawn) [mono-mPEG1-Atazanavir]"
  measured property: "TC50"
  test result: ">1.0 µM"
- compound: "COCCOCCOCCOc1ccc(C[C@H](NC(=O)O[C@H]2CO[C@H]3OCC[C@H]32)C(O)CN(CC(C)C)S(=O)(=O)c2ccc(N)cc2)cc1 (stereo partly drawn) [mPEG3-O-Darunavir]"
  measured property: "TC50"
  test result: ">200 µM"
- compound: "COCCOCCOCCOCCOCCOCCOCCNc1ccc(S(=O)(=O)N(CC(C)C)CC(O)[C@H](Cc2ccccc2)NC(=O)O[C@H]2CO[C@H]3OCC[C@H]32)cc1 (stereo partly drawn) [mPEG7-N-Darunavir]"
  measured property: "TC50"
  test result: ">200 µM"
- compound: "CC(C)CN(C[C@@H](O)[C@H](Cc1ccccc1)NC(=O)O[C@H]1CO[C@H]2OCC[C@H]21)S(=O)(=O)c1ccc(N)cc1 [Darunavir, reference compound]"
  measured property: "TC50"
  test result: ">200 µM"
- compound: "COCCOCCOCCOCCOCCNc1ccc(S(=O)(=O)N(CC(C)C)CC(O)[C@H](Cc2ccccc2)NC(=O)O[C@H]2CO[C@H]3OCC[C@H]32)cc1 (stereo partly drawn) [mPEG5-N-Darunavir]"
  measured property: "TC50"
  test result: ">200 µM"

Lab note: each compound below needs its TC50 filled in.
1. COCCOCCOCCOCCOCCOCCOCCOC(=O)NC(C(=O)NC(Cc1ccccc1)C(O)CN(Cc1ccc(-c2ccccn2)cc1)NC(=O)C(NC(=O)OC)C(C)(C)C)C(C)(C)C (stereo not drawn) [mono-mPEG7-Atazanavir]
2. COCCOCCOCCOCCOCCOC(=O)NC(C(=O)NC(Cc1ccccc1)C(O)CN(Cc1ccc(-c2ccccn2)cc1)NC(=O)C(NC(=O)OC)C(C)(C)C)C(C)(C)C (stereo not drawn) [mono-mPEG5-Atazanavir]
3. COCCOCCOCCOCCOCCOCCOC(=O)NC(C(=O)NC(Cc1ccccc1)C(O)CN(Cc1ccc(-c2ccccn2)cc1)NC(=O)C(NC(=O)OC)C(C)(C)C)C(C)(C)C (stereo not drawn) [mono-mPEG6-Atazanavir]

[reply]
1. >1.0 µM
2. >1.0 µM
3. >1.0 µM

Hey, monocyte-derived dendritic cells data for COCCOCCOCCOCCOCCOc1ccc(C[C@H](NC(=O)O[C@H]2CO[C@H]3OCC[C@H]32)C(O)CN(CC(C)C)S(=O)(=O)c2ccc(N)cc2)cc1 (stereo partly drawn) [mPEG5-O-Darunavir] : TC50 came out at >200 µM

* * *

# System: HIV-1BaL
# assay remarks: HIV-1 p24 levels after infection of fresh human monocyte/macrophages
# Format: cell-based
# assay setup: seven days, p24; read-out: Monocyte/HIV-1BaL EC50
I'd be grateful if you could share measured pEC50 for these entries.
Answers are plain numbers, as −log10 of the molar value.

Lab note: each molecule below needs its pEC50 filled in.
1. COCCOCCOCCOCCOCCOCCOCCOC(=O)NC(C(=O)NC(Cc1ccccc1)C(O)CN(Cc1ccc(-c2ccccn2)cc1)NC(=O)C(NC(=O)OC)C(C)(C)C)C(C)(C)C (stereo not drawn)
2. COCCOCCOCCOCCOCCOc1ccc(C[C@H](NC(=O)O[C@H]2CO[C@H]3OCC[C@H]32)C(O)CN(CC(C)C)S(=O)(=O)c2ccc(N)cc2)cc1 (stereo partly drawn)

[reply]
1. 6.86
2. 6.58

* * *

# Tested on: HIV-1Ba-L
# assay remarks: Anti-HIV-1 activity in monocyte-derived dendritic cells (reverse transcriptase activity)
# Assay type: cell-based
# assay setup: Human immunodeficiency virus 1, Dendritic cell, read-out: EC50 Third, dendritic cells, third determination
measured property: pEC50
One number for each entry, as −log10 of the molar value.

pEC50 recorded for this compound, CC(C)CN(C[C@@H](O)[C@H](Cc1ccccc1)NC(=O)O[C@H]1CO[C@H]2OCC[C@H]21)S(=O)(=O)c1ccc(N)cc1 [Darunavir, reference compound] , is 8.52

* * *

# tgt: CYP3A4 (Homo sapiens (Human), UniProt P08684)
# assay remarks: CYP450 inhibition in human liver microsomes: CYP3A4;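 also: incubation at 37 °C started by adding 1 mM NADPH, with formation of the probe metabolite measured via LC-MS/MS or fluorescent detection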
# assay setup: read-out: CYP3A4 IC50 Midazolam; probe substrate midazolam
measured property: pIC50
Answers are plain numbers, as −log10 of the molar value.

Completed entries (count: 2):
- molecule: "CCCC1(CCc2ccccc2)CC(O)=C(C(CC)c2cccc(N(CCOCCOCCOC)S(=O)(=O)c3ccc(C(F)(F)F)cn3)c2)C(=O)O1 (centres unmarked) [mPEG3-amide-Tipranavir]"
  pIC50: 5.60
- molecule: "CCCC1(CCc2ccccc2)CC(O)=C(C(CC)c2cccc(N(CCOCCOCCOCCOCCOC)S(=O)(=O)c3ccc(C(F)(F)F)cn3)c2)C(=O)O1 (centres unmarked) [mPEG5-amide-Tipranavir]"
  pIC50: 5.77

Let us examine a further case.
pIC50 recorded for this molecule, COCCOCCOCCOCCOCCOCCOCCNc1ccc(S(=O)(=O)N(CC(C)C)CC(O)[C@H](Cc2ccccc2)NC(=O)O[C@H]2CO[C@H]3OCC[C@H]32)cc1 (some centres unmarked) [mPEG7-N-Darunavir] , is 5.27

* * *

# tgt: CYP3A4 (Homo sapiens (Human))
# assay remarks: CYP450 inhibition in human liver microsomes: CYP3A4
# assay setup: read-out: CYP3A4 IC50 Midazolam; probe substrate midazolam
measured property: pIC50
Answers are plain numbers, as −log10 of the molar value.

Completed entries (count: 4):
- compound: "COCCOCCOCCOCCOCCOCCOC(=O)NC(C(=O)NC(Cc1ccccc1)C(O)CN(Cc1ccc(-c2ccccn2)cc1)NC(=O)C(NC(=O)OC)C(C)(C)C)C(C)(C)C (stereo not shown) [mono-mPEG6-Atazanavir]"
  pIC50: 4.78
- compound: "COCCOCCOCCOCCOCCNc1ccc(S(=O)(=O)N(CC(C)C)CC(O)[C@H](Cc2ccccc2)NC(=O)O[C@H]2CO[C@H]3OCC[C@H]32)cc1 (stereo partly shown) [mPEG5-N-Darunavir]"
  pIC50: 5.57
- compound: "COCCOC(=O)NC(C(=O)NC(Cc1ccccc1)C(O)CN(Cc1ccc(-c2ccccn2)cc1)NC(=O)C(NC(=O)OC)C(C)(C)C)C(C)(C)C (stereo not shown) [mono-mPEG1-Atazanavir]"
  pIC50: 5.59
- compound: "COCCOCCOCCOc1ccc(C[C@H](NC(=O)O[C@H]2CO[C@H]3OCC[C@H]32)C(O)CN(CC(C)C)S(=O)(=O)c2ccc(N)cc2)cc1 (stereo partly shown) [mPEG3-O-Darunavir]"
  pIC50: 5.59

Lab note: each compound below needs its pIC50 filled in.
1. COCCOCCOCCOCCOCCOCCOCCOC(=O)NC(C(=O)NC(Cc1ccccc1)C(O)CN(Cc1ccc(-c2ccccn2)cc1)NC(=O)C(NC(=O)OC)C(C)(C)C)C(C)(C)C (stereo not shown) [mono-mPEG7-Atazanavir]
2. COCCOCCOCCNc1ccc(S(=O)(=O)N(CC(C)C)CC(O)[C@H](Cc2ccccc2)NC(=O)O[C@H]2CO[C@H]3OCC[C@H]32)cc1 (stereo partly shown) [mPEG3-N-Darunavir]
3. CCC[C@@]1(CCc2ccccc2)CC(O)=C([C@H](CC)c2cccc(N(CCOCCOCCOCCOCCOCCOCCOC)S(=O)(=O)c3ccc(C(F)(F)F)cn3)c2)C(=O)O1 [mPEG7-amide-Tipranavir]
4. COCCOCCOCCOCCOCCOC(=O)NC(C(=O)NC(Cc1ccccc1)C(O)CN(Cc1ccc(-c2ccccn2)cc1)NC(=O)C(NC(=O)OC)C(C)(C)C)C(C)(C)C (stereo not shown) [mono-mPEG5-Atazanavir]

[reply]
[4.70, 5.92, 5.59, 5.03]
